# SYSTEM_NAME: PIK3CA (human) (UniProt P42336)
# Sequence (P42336 whole entry, looked up): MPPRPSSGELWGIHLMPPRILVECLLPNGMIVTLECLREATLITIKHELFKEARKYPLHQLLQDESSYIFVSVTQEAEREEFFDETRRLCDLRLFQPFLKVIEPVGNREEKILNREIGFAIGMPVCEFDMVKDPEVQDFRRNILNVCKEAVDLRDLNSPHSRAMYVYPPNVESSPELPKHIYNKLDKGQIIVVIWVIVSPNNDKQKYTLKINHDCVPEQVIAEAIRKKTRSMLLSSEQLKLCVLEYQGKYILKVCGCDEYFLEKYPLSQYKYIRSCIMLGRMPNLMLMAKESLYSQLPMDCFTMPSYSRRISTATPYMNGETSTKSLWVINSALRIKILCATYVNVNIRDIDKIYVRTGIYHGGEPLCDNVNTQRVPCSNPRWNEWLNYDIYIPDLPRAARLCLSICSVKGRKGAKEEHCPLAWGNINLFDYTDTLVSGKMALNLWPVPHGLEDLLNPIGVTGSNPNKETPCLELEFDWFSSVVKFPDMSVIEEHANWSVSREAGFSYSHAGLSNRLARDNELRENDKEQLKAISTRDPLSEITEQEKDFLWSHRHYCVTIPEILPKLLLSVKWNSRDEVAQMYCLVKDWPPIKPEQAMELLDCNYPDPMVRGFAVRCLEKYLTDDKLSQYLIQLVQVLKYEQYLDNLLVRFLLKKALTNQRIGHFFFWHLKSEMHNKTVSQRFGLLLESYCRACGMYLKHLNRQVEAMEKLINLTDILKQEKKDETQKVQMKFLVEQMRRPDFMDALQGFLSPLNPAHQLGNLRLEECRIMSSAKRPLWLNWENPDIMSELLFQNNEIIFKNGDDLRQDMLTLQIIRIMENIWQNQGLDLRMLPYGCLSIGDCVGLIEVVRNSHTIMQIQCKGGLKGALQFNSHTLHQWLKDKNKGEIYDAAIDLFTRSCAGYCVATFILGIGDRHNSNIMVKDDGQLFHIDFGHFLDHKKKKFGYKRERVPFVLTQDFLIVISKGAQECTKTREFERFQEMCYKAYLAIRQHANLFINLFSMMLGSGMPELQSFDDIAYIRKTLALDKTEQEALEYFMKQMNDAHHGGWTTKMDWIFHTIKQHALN
PARAMETER_MEASURED: IC50 (nM)

I = CN(C)C(=O)CN(C)C(=O)C1CCN(c2ccnc3c2c(C=C2Oc4ccc(NC(=O)Nc5cccnc5)cc4C2=O)cn3C)CC1
II = Cn1cc(/C=C2\Oc3ccc(NC(=O)NC4CC4)cc3C2=O)c2c(N3CC4CCC(C3)O4)ccnc21
III = Cn1cc(/C=C2\Oc3cccc(O)c3C2=O)c2c(-c3ccc(C4=NCCCO4)cc3)ccnc21
Req: Sort the entries above numerically by IC50, high end first. Give the order by naming the labels one after another as requested.
Resp: I, II, III

###

Parameter 'readout' = IC50; parameter 'system' = PIK3CG (human) (UniProt P48736).
Sequence (P48736 whole entry, looked up): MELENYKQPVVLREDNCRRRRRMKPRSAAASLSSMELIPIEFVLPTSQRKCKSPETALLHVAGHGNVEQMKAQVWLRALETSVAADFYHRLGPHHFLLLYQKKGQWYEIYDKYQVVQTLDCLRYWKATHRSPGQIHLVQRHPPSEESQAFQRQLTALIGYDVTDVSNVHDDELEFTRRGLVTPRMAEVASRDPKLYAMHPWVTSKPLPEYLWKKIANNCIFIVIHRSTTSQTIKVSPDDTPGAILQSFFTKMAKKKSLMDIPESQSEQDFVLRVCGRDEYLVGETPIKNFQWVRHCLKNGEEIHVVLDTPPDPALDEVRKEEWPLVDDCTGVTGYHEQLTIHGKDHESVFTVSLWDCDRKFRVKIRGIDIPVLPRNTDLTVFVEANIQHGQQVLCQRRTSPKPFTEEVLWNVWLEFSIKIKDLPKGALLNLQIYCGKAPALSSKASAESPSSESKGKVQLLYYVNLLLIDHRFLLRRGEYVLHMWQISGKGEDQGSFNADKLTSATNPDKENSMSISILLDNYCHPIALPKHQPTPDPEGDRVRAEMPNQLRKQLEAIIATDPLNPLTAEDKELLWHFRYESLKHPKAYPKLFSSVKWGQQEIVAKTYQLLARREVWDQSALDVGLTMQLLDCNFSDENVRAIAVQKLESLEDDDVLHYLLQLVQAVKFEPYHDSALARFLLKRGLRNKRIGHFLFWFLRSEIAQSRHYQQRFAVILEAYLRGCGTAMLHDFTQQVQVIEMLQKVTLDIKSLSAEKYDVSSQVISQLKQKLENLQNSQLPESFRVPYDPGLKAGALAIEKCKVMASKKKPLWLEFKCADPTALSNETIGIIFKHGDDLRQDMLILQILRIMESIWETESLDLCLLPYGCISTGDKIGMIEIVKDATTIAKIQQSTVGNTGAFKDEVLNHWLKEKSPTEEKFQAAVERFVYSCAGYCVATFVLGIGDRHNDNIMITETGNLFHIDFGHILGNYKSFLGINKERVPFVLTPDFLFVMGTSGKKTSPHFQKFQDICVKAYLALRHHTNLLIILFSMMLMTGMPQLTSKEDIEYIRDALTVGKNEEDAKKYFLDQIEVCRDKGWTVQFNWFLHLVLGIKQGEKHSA
PARAMETER_MEASURED: IC50 (nM)

Study these solved cases before continuing.
Req: Give PIK3CG (human) (UniProt P48736) IC50 for `Cn1cc(/C=C2\Oc3cccc(O)c3C2=O)c2c(-c3ccc(C(=O)N4CCOCC4)cc3)ccnc21`
Resp: 54

Req: Record `Cn1cc(/C=C2\Oc3cc(O)cc(O)c3C2=O)c2c(-c3ccc(OC(F)(F)F)cc3)ccnc21` : what is its IC50 with PIK3CG (human) (UniProt P48736)?
Resp: 139

Req: What value of IC50 on PIK3CG (human) (UniProt P48736) does `Cn1cc(/C=C2\Oc3cc(O)cc(O)c3C2=O)c2c(-c3cncnc3)ccnc21` have?
Resp: 149

P = Cn1cc(/C=C2\Oc3cccc(O)c3C2=O)c2c(-c3ccc(C4=NCCCO4)cc3)ccnc21
Q = COc1ccc(-c2ccnc3c2c(/C=C2\Oc4cc(O)cc(O)c4C2=O)cn3C)cc1
R = CN(C)C(=O)CN(C)C(=O)C1CCN(c2ccnc3c2c(C=C2Oc4ccc(NC(=O)Nc5cccnc5)cc4C2=O)cn3C)CC1
S = Cn1cc(/C=C2\Oc3cccc(O)c3C2=O)c2c(-c3ccc[nH]3)ccnc21
Req: Order the records, beginning with the lowest IC50 and ending with the highest. Reply format: the labels, ordered as requested.
Resp: Q, P, S, R
(Q: 157 nM, P: 276 nM, S: 2090 nM, R: 6830 nM)
